System: Fathead minnow (Pimephales promelas) acute toxicity, lethality
assay.text: DSSTox (EPAFHM) EPA Fathead Minnow Acute Toxicity
quantity.measured: Potency

> print(dat)
                         molecule  quantity.measured  reported.value
1                          CCCC=O            Potency          204 µM
2  CCCCOC(=O)c1cccc(C(=O)OCCCC)c1            Potency         3.23 µM
3                  CCCCCCCCC(=O)O            Potency          657 µM
4                     CCCCCC(C)=O            Potency         1150 µM
5               CC(C)(C)CC(C)(C)N            Potency          190 µM
6                    C1CN2CCN1CC2            Potency        15400 µM
7           CC12CCC(CC1)C(C)(C)O2            Potency          661 µM
8         Oc1ccc(Oc2ccc(O)cc2)cc1            Potency         28.6 µM

----------
Tested on: Fathead minnow (Pimephales promelas) acute toxicity, lethality
assay.text: DSSTox (EPAFHM) EPA Fathead Minnow Acute Toxicity
quantity.measured: Potency

> print(dat)
                                    molecule                              assay.target  reported.value
 1                        CC(=O)Nc1cccc(O)c1  Fathead minnow (Pimephales promelas) acute toxicity, lethality         7480 µM
 2                       COc1cc(Cl)c(Cl)cc1O  Fathead minnow (Pimephales promelas) acute toxicity, lethality         23.2 µM
 3                  O=Cc1c(F)c(F)c(F)c(F)c1F  Fathead minnow (Pimephales promelas) acute toxicity, lethality         5.61 µM
 4  C=CC(=O)OCC(C)O (configuration not stated)  Fathead minnow (Pimephales promelas) acute toxicity, lethality           26 µM
 5                   Nc1c(Cl)c(Cl)cc(Cl)c1Cl  Fathead minnow (Pimephales promelas) acute toxicity, lethality         1.17 µM
 6                         O=Cc1ccc(Cl)cc1Cl  Fathead minnow (Pimephales promelas) acute toxicity, lethality         10.3 µM
 7                      CC(=O)CC(=O)c1ccccc1  Fathead minnow (Pimephales promelas) acute toxicity, lethality         6.78 µM
 8                    Nc1ccc(F)c(C(F)(F)F)c1  Fathead minnow (Pimephales promelas) acute toxicity, lethality          168 µM
 9                   Fc1ccc(Oc2ccc(F)cc2)cc1  Fathead minnow (Pimephales promelas) acute toxicity, lethality         5.48 µM
10                      O=C1C2CC3CC(C2)CC1C3  Fathead minnow (Pimephales promelas) acute toxicity, lethality          405 µM
11                     Cl[C@@H]1CCCC[C@H]1Cl  Fathead minnow (Pimephales promelas) acute toxicity, lethality          120 µM
12          CC(C)(C)c1ccc(Oc2cccc(C=O)c2)cc1  Fathead minnow (Pimephales promelas) acute toxicity, lethality         1.45 µM
13    COC(=O)c1ccc(C(=O)OC)c([N+](=O)[O-])c1  Fathead minnow (Pimephales promelas) acute toxicity, lethality         27.3 µM
14                  CCOC(CN(C)CC(OCC)OCC)OCC  Fathead minnow (Pimephales promelas) acute toxicity, lethality         2410 µM
15                 CCCCOC(=O)/C=C/C(=O)OCCCC  Fathead minnow (Pimephales promelas) acute toxicity, lethality         2.76 µM
16                                   BrCCCBr  Fathead minnow (Pimephales promelas) acute toxicity, lethality         10.4 µM
17                            NC(=O)c1ccccc1  Fathead minnow (Pimephales promelas) acute toxicity, lethality         5460 µM
18                Cn1c(=O)c2c(ncn2C)n(C)c1=O  Fathead minnow (Pimephales promelas) acute toxicity, lethality          778 µM
19                                  ClCCCCCl  Fathead minnow (Pimephales promelas) acute toxicity, lethality          406 µM
20                         Nc1ccc(Cl)c(Cl)c1  Fathead minnow (Pimephales promelas) acute toxicity, lethality         46.7 µM
21                               O=Cc1cccnc1  Fathead minnow (Pimephales promelas) acute toxicity, lethality          153 µM
22                                    CCCCCO  Fathead minnow (Pimephales promelas) acute toxicity, lethality         5360 µM
